- System Tested: HIV-1 Env of isolate MGRM-D-004 (subtype D) (HIV-1)
- Assay Explanation: cell-based or functional assay
Below: a set of entries, each annotated with reported IC50 (neutralization).

Binder	IC50 (neutralization)
PGT-131 (antibody, V domains shown) VH: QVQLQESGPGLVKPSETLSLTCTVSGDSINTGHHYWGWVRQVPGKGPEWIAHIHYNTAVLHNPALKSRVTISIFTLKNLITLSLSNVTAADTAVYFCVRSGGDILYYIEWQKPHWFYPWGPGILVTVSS VL: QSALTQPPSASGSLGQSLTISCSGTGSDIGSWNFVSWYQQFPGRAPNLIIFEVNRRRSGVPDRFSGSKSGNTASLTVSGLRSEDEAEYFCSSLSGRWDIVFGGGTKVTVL	2.01 µg/mL
PGT-137 (antibody, V domains shown) VH: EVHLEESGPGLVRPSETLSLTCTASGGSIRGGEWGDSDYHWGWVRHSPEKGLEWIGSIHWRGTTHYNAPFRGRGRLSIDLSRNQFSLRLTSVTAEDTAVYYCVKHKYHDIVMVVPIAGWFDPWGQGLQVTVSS VL: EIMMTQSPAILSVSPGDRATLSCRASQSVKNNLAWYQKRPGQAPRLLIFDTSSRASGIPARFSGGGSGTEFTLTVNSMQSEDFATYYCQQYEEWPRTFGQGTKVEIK	> 50 µg/mL
PGT-126 (antibody, V domains shown) VH: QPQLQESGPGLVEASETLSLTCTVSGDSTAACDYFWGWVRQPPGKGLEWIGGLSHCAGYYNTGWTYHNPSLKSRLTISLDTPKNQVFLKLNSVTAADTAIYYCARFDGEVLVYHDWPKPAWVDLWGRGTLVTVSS VL: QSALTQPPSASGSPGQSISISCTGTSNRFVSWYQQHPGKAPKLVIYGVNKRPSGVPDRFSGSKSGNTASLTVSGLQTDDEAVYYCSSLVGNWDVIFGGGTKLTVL	> 50 µg/mL

Values were extracted from patent US20160264649A1.
